Source: patent US20220089540A1

Test system: SREBP
Assay: SREBP induction in human liver (HepG2) cells, RT-PCR
Format: cell-based
Conditions: human, HepG2 cells (human liver carcinoma); 300 nM; HepG2; Table 5; read-out: Safety SREBP mRNA fold induction at 300 nM
Measured fold induction at 0.3 µM by item
Note: the reply should be a number with no unit written.

The cases that follow already have their fold induction at 0.3 µM on record.
| compound | fold induction at 0.3 µM |
| --- | --- |
| CCN(c1ccc(C(=O)O)cn1)c1cc(C(C)(C)C)ccc1C [drawing 72] | 1.59 |
| Cc1ccc(C(C)(C)C)cc1N(c1ccc(C(=O)O)cn1)C(C)C | 0.98 |
| CC(C)(C)c1cc(N(Cc2ccccc2)c2ccc(C(=O)O)cn2)cc(C(C)(C)C)c1 [drawing 93] | 1.94 |
| CC(C)N(c1cc(C(C)(C)C)cc(C(C)(C)C)c1)c1ccc(C(=O)O)cn1 | 1.65 |
| CC(C)CN(c1cc(C(C)(C)C)cc(C(C)(C)C)c1)c1ncc(C(=O)O)cn1 | 2.46 |
| CC(C)CN(c1cc(C(F)(F)F)cc(C(F)(F)F)c1)c1ccc(C(=O)O)cn1 | 1 |
| CCN(c1ccc(C(=O)O)cc1)c1cc(C(C)(C)C)cc(C(C)(C)C)c1 [drawing 64] | 1.37 |
| CC(C)(C)c1cc(-n2c(C(F)(F)F)nc3cc(C(=O)O)ccc32)cc(C(C)(C)C)c1 [drawing 69] | 1.58 |

Task: Look up and report measured fold induction at 0.3 µM for this entry: CCCN(c1ccc(C(=O)O)cn1)c1cc(C(C)(C)C)ccc1C
Output: 1.8

Task: Please supply the value of reported fold induction at 0.3 µM for the item C=C(c1ccc(C(=O)O)cc1)c1cc(C(C)C)c(OCC(C)C)cc1C [drawing 71]
Output: 1.67
